assay-procedure: Drug metabolism in human hepatocyte microsome fraction assessed as GSH conjugate formation by LC-MS/MS analysis
Assay type: ADME
particulars: microsomes
measure-name: Drug metabolism (µmol/L)

// known answers, use as guide
> print(dat)
                              smiles.string  unit.name  numeric.readout
1       Cc1cc2c(s1)Nc1ccccc1N=C2N1CCN(C)CC1     µmol/L            0.077
2  C[C@H]1C=C(C2=Nc3cc(Cl)ccc3Nc3ccc(F)cc32)CCN1C     µmol/L             0.24
3  CCc1ccc2c(c1)C(C1=C[C@H](C)N(C)CC1)=Nc1ccccc1N2     µmol/L             0.86
4  Cc1ccc2c(c1)C(C1=C[C@H](C)N(C)CC1)=Nc1ccccc1N2     µmol/L             0.85

[1] CN1CCN([C@@H]2C[C@@H](c3ccccc3)c3ccc(Cl)cc32)CC1(C)C
[2] CCOc1ccc2c(c1)C(C1=C[C@H](C)N(C)CC1)=Nc1cc(Cl)ccc1N2
[3] C[C@H]1C=C(C2=Nc3cc(Cl)ccc3Nc3ccccc32)CCN1C
[4] Cc1ccc2c(c1)N=C(C1=C[C@H](C)N(C)CC1)c1cc(F)ccc1N2
[5] C[C@H]1C=C(C2=Nc3cc(Cl)ccc3Nc3ccc(C#N)cc32)CCN1C
Please list the entries, largest Drug metabolism first. Enter labels, ranked according to the request.
3, 2, 5, 4, 1

----------
system-tested: D(1A) dopamine receptor (Homo sapiens)
assay-procedure: Binding affinity to human dopamine D1 receptor
measure-name: Ki (nM)

[I] Cc1ccc2c(c1)C(C1=C[C@H](C)N(C)CC1)=Nc1cc(Cl)ccc1N2
[II] C[C@H]1C=C(C2=Nc3cc(Cl)ccc3Nc3ccc(C#N)cc32)CCN1C
[III] C[C@H]1C=C(C2=Nc3cc(Cl)ccc3Nc3ccc(F)cc32)CCN1C
Ranking field: Ki; order: falling. Respond with an ordered listing of the labels, as requested.
I, II, III
(I: 2.3 nM, II: 1.1 nM, III: 0.2 nM)

----------
pKi: −log10 of the molar value.
Read-out record for UniProt P28223: pKi
Sequence (P28223 whole entry): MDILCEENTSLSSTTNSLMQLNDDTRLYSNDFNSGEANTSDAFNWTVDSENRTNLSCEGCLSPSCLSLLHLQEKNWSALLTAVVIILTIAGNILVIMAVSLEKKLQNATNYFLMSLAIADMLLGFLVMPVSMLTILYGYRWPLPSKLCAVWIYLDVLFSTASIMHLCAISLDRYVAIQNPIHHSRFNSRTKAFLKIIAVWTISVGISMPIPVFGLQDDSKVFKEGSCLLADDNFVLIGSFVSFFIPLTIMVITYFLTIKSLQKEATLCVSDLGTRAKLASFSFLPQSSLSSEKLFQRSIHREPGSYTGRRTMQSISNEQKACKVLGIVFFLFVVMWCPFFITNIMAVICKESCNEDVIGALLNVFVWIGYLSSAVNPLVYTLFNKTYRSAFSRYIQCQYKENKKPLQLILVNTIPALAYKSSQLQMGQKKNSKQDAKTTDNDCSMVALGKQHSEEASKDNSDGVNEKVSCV
measure-name: pKi

> print(dat)
                              smiles.string  numeric.readout
1  CCOc1ccc2c(c1)C(C1=C[C@H](C)N(C)CC1)=Nc1cc(Cl)ccc1N2            10.04
2  C[C@H]1C=C(C2=Nc3cc(Cl)ccc3Nc3ccc(OC(F)(F)F)cc32)CCN1C             9.85

----------
assay-procedure: In vivo receptor occupancy at human dopamine D1 receptor in schizophrenia patient brain at 10 mCi, iv by PET scanning
Format: functional
Known Occ of a selection of compounds
Numeric answer only, unit % assumed.

> print(dat)
                              smiles.string  measure.name  unit.name  numeric.readout
1  Cc1nc2n(c(=O)c1CCN1CCC(c3noc4cc(F)ccc34)CC1)CCCC2           Occ          %               25
2     CN1CCN(C2=Nc3cc(Cl)ccc3Nc3ccccc32)CC1           Occ          %               55

What measured Occ goes with Cc1cc2c(s1)Nc1ccccc1N=C2N1CCN(C)CC1 ?
43

Report Occ for OCCOCCN1CCN(C2=Nc3ccccc3Sc3ccccc32)CC1 please.
12

----------
system-tested: D(1A) dopamine receptor (Homo sapiens, UniProt P21728)
Sequence (P21728 whole entry): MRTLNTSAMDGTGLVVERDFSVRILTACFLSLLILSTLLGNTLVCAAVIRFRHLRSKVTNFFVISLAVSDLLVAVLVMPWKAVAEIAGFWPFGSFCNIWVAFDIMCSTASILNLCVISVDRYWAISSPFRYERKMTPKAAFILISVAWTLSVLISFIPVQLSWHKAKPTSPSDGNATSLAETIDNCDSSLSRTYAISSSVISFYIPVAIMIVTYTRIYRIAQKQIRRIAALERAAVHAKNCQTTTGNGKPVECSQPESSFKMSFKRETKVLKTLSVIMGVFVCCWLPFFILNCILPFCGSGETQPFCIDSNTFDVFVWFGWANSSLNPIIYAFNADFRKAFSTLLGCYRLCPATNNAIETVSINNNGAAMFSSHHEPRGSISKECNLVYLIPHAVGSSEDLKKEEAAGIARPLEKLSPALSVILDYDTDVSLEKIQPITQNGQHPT
assay-procedure: Binding affinity to human dopamine D1 receptor
measure-name: Ki (nM)

> print(dat)
                              smiles.string  unit.name  numeric.readout
1  Cc1ccc2c(c1)C(C1=C[C@H](C)N(C)CC1)=Nc1ccccc1N2         nM              7.9

[I] C[C@H]1C=C(C2=Nc3ccccc3Nc3ccc(Cl)cc32)CCN1C
[II] Cc1ccc2c(c1)N=C(C1=C[C@H](C)N(C)CC1)c1cc(Cl)ccc1N2
[III] Cc1ccc2c(c1)N=C(C1=C[C@H](C)N(C)CC1)c1cc(OC(F)(F)F)ccc1N2
[IV] C[C@H]1C=C(C2=Nc3cc(Cl)ccc3Nc3ccc(Cl)cc32)CCN1C
Order the records so the highest Ki appears first and the lowest last. // respond by listing labels in the order requested
III, I, IV, II
(III: 2.4 nM, I: 1.6 nM, IV: 0.9 nM, II: 0.48 nM)

----------
assay-procedure: In vivo receptor occupancy at dopamine D1 receptor in sc dosed rat brain by measuring free plasma concentration pretreated for 1 hr in presence of raclopride by LC-MS/MS analysis
Format: functional
Items are presented alongside their recorded Occ50.
Please state the figure in nM; there is no need to write the unit.

Look at this compound and give its reported Occ50. CN1CCN([C@@H]2C[C@@H](c3ccccc3)c3ccc(Cl)cc32)CC1(C)C
6.6

Request the reported Occ50 associated with CCc1ccc2c(c1)C(C1=C[C@H](C)N(C)CC1)=Nc1cc(Cl)ccc1N2
6

Find the recorded Occ50 belonging to CN1CCN(C2=Nc3cc(Cl)ccc3Nc3ccccc32)CC1 and report it.
73.4

For Cc1cc2c(s1)Nc1ccccc1N=C2N1CCN(C)CC1 , what is its reported Occ50?
480

----------
Measured pIC50 (UniProt:Q12809)
Sequence (Q12809 whole entry): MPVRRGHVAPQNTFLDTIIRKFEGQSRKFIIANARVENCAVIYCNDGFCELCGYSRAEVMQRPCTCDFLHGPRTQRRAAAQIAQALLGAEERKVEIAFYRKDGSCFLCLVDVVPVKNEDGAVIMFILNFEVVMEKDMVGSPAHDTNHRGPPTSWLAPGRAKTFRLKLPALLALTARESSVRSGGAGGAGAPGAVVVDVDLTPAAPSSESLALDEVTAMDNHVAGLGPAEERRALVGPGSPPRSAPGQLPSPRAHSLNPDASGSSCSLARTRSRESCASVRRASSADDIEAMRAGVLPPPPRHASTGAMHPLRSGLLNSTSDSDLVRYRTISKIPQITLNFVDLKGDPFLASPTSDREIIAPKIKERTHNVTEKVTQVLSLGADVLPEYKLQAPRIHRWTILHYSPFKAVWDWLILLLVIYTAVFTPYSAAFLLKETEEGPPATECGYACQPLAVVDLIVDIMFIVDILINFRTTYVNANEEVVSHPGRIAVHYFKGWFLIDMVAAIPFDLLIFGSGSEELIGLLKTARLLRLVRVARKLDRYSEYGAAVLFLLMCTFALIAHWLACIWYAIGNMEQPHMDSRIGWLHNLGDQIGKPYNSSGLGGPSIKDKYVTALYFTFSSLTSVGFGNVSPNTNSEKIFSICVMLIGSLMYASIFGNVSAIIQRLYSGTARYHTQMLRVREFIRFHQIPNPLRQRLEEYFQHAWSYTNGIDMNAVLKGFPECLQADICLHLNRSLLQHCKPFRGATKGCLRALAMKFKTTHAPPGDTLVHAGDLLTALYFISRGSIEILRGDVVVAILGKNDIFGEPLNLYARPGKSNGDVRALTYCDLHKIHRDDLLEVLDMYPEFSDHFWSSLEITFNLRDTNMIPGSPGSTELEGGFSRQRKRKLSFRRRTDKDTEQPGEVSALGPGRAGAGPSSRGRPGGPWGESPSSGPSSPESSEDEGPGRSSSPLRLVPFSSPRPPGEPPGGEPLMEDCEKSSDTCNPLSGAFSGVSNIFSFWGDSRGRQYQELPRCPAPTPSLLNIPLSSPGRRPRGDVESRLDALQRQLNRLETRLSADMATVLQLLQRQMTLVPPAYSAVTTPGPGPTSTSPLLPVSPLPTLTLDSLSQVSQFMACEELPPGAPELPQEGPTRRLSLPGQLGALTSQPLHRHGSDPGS
Give only the number. pIC50 is defined as minus log10 of concentration in molar units.

> print(dat)
                              smiles.string  numeric.readout
1  CCOc1ccc2c(c1)C(C1=C[C@H](C)N(C)CC1)=Nc1cc(Cl)ccc1N2             6.05
2  C[C@H]1C=C(C2=Nc3cc(Cl)ccc3Nc3ccc(C#N)cc32)CCN1C             6.22
3  CCc1ccc2c(c1)C(C1=C[C@H](C)N(C)CC1)=Nc1ccccc1N2             6.22
4  C[C@H]1C=C(C2=Nc3ccccc3Nc3ccc(Cl)cc32)CCN1C             6.22
5  COc1ccc2c(c1)C(C1=C[C@H](C)N(C)CC1)=Nc1cc(Cl)ccc1N2             5.82

API: value(readout= pIC50, system= UniProt:Q12809, query= C[C@H]1C=C(C2=Nc3cc(Cl)ccc3Nc3ccc(F)cc32)CCN1C )
5.92

Request - read-out pIC50 | tested on UniProt:Q12809 | compound Cc1ccc2c(c1)N=C(C1=C[C@H](C)N(C)CC1)c1cc(Cl)ccc1N2
5.96

API: value(readout= pIC50, system= UniProt:Q12809, query= Cc1ccc2c(c1)N=C(C1=C[C@H](C)N(C)CC1)c1cc(F)ccc1N2 )
5.80

Fill in the recorded pIC50 for this compound, with UniProt:Q12809 as test system: C[C@H]1C=C(C2=Nc3cc(Cl)ccc3Nc3ccc(OC(F)(F)F)cc32)CCN1C
5.72

API: value(readout= pIC50, system= UniProt:Q12809, query= C[C@H]1C=C(C2=Nc3cc(Cl)ccc3Nc3ccc(Cl)cc32)CCN1C )
6.05

Query the reported pIC50 for UniProt:Q12809; item: CCc1ccc2c(c1)C(C1=C[C@H](C)N(C)CC1)=Nc1cc(Cl)ccc1N2
5.96

----------
assay-procedure: Drug metabolism in human hepatocyte microsome fraction assessed as GSH conjugate formation by LC-MS/MS analysis
Type: ADME
particulars: microsomes
measure-name: Drug metabolism (µmol/L)

The examples below pair each entry with its known result.
> print(dat)
                              smiles.string  unit.name  numeric.readout
1  CN1CCC(C2=Nc3cc(Cl)ccc3Nc3ccccc32)=CC1(C)C     µmol/L             0.99
2  C[C@H]1C=C(C2=Nc3cc(Cl)ccc3Nc3ccc(Cl)cc32)CCN1C     µmol/L             0.72
3  COc1ccc2c(c1)C(C1=C[C@H](C)N(C)CC1)=Nc1cc(Cl)ccc1N2     µmol/L             0.89
4  C[C@H]1C=C(C2=Nc3ccccc3Nc3ccc(Cl)cc32)CCN1C     µmol/L             0.67
5  C[C@@H]1C=C(C2=Nc3cc(Cl)ccc3Nc3ccccc32)CCN1C     µmol/L             0.84

[A] CN1CC=C(C2=Nc3cc(Cl)ccc3Nc3ccccc32)CC1
[B] C[C@H]1C=C(C2=Nc3cc(Cl)ccc3Nc3ccc(OC(F)(F)F)cc32)CCN1C
# return whichever of A and B has the smaller Drug metabolism Mark your answer with the label of the selected entry.
A
(A: 0.21 µmol/L, B: 0.58 µmol/L)

----------
system-tested: UniProt P21728
assay-procedure: Binding affinity to human dopamine D1 receptor
pKi: −log10 of the molar value.
measure-name: pKi

Some solved entries appear below for comparison.
> print(dat)
                              smiles.string   system.tested  measure.name  numeric.readout
1  CCOc1ccc2c(c1)C(C1=C[C@H](C)N(C)CC1)=Nc1cc(Cl)ccc1N2  UniProt P21728           pKi             8.43
2  CN1CCC(C2=Nc3cc(Cl)ccc3Nc3ccccc32)=CC1(C)C  UniProt P21728           pKi             7.26
3    CN1CC=C(C2=Nc3cc(Cl)ccc3Nc3ccccc32)CC1  UniProt P21728           pKi             6.42
4  CCc1ccc2c(c1)C(C1=C[C@H](C)N(C)CC1)=Nc1ccccc1N2  UniProt P21728           pKi             8.40
5  C[C@@H]1C=C(C2=Nc3cc(Cl)ccc3Nc3ccccc32)CCN1C  UniProt P21728           pKi             6.11
6  COc1ccc2c(c1)C(C1=C[C@H](C)N(C)CC1)=Nc1cc(Cl)ccc1N2  UniProt P21728           pKi             8.70
7  C[C@H]1C=C(C2=Nc3cc(Cl)ccc3Nc3ccccc32)CCN1C  UniProt P21728           pKi             7.29
8  CCc1ccc2c(c1)C(C1=C[C@H](C)N(C)CC1)=Nc1cc(Cl)ccc1N2  UniProt P21728           pKi             8.85

[I] Cc1ccc2c(c1)N=C(C1=C[C@H](C)N(C)CC1)c1cc(F)ccc1N2
[II] C[C@H]1C=C(C2=Nc3cc(Cl)ccc3Nc3ccc(OC(F)(F)F)cc32)CCN1C
Of I and II , whose reported pKi is numerically smaller? // return label of chosen record
I
